- target-or-test-system: Cyclin-dependent kinase 9 (Homo sapiens)
- Sequence (P50750 whole entry): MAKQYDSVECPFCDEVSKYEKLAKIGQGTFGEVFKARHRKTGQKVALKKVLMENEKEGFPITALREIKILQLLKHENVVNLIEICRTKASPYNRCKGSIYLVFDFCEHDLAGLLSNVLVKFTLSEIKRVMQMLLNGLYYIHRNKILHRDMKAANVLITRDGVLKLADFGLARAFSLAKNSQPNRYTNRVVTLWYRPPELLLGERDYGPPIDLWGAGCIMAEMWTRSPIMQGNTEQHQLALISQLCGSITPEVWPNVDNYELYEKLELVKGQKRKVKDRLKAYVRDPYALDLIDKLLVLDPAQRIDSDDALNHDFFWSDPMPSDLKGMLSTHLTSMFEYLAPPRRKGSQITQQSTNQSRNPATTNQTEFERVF
- experiment: Inhibition of CDK9 (unknown origin) in presence of high ATP
metric-name: pIC50
Remember the convention: pIC50 equals -log10 of concentration in molar.

// recorded pIC50 for `CC(C)n1cnc2c(NCc3nc4ccc(F)c(F)c4[nH]3)nc(N3CCCC[C@H]3CCO)nc21` : 5.04
